For each entry below, report its melting point value.

Solved entries:
O=C1/C(=C/c2ccco2)N=C(c2ccccc2)N1c1ccc(S(=O)(=O)Nc2ncccn2)cc1; 291 to 293 °C
COc1ccc(C2=N/C(=C\c3ccc([N+](=O)[O-])cc3)C(=O)N2c2ccc(S(=O)(=O)Nc3ncccn3)cc2)cc1; > 300 °C
COc1ccc(C2=N/C(=C\c3cc(OC)c(OC)c(OC)c3)C(=O)N2c2ccc(S(=O)(=O)Nc3ncccn3)cc2)cc1; 247 to 249 °C
CC(=O)Oc1c(Br)cc(/C=C2\N=C(c3ccccc3)N(c3ccc(S(=O)(=O)Nc4ncccn4)cc3)C2=O)cc1Br; 243 to 245 °C

I need melting point for every entry listed below, if you could help.
1. COc1ccc(C2=N/C(=C\c3cc(Br)c(OC(C)=O)c(Br)c3)C(=O)N2c2ccc(S(=O)(=O)Nc3ncccn3)cc2)cc1
2. COc1ccc(/C=C2\N=C(c3ccccc3)N(c3ccc(S(=O)(=O)Nc4ncccn4)cc3)C2=O)c(OC)c1OC

stdout:
1. 239 to 241 °C
2. 210 to 212 °C

* * *

target: UniProt P00533
Sequence (P00533 25-1210): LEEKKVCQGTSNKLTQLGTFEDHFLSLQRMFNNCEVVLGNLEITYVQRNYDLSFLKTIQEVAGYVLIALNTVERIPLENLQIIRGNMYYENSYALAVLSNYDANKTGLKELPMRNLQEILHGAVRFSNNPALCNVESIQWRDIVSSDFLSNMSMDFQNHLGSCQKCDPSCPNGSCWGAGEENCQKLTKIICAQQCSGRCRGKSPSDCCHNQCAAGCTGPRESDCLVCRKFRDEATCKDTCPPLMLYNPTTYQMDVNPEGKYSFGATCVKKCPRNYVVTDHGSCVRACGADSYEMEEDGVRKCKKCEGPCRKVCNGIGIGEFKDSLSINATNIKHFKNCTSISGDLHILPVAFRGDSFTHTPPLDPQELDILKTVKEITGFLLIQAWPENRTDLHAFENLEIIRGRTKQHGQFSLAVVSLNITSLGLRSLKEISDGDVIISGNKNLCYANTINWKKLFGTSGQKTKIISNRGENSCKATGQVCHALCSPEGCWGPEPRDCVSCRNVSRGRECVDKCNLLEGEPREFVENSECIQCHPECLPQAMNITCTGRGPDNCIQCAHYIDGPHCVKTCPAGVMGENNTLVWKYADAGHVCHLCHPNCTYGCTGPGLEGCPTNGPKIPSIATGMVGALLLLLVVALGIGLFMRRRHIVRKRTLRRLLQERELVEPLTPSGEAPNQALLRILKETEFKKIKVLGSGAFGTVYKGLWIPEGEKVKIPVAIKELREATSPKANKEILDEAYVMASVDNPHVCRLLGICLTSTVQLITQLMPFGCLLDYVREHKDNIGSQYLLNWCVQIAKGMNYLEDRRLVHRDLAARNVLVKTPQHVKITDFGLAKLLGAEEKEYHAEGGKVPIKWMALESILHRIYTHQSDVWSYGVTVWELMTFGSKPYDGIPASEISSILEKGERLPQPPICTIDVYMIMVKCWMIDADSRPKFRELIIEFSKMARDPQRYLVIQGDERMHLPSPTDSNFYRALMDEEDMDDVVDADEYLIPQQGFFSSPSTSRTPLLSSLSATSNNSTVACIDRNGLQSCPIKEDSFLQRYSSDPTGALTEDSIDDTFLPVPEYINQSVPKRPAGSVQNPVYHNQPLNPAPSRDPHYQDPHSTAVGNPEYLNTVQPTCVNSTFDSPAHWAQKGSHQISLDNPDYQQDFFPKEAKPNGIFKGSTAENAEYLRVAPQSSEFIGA
measurementName: pIC50
Numbers only, as −log10 of the molar value.

Give me pIC50 for each of these compounds, listed below.
1. COc1ccc(C2=N/C(=C\c3ccc([N+](=O)[O-])cc3)C(=O)N2c2ccc(S(=O)(=O)Nc3ncccn3)cc2)cc1
2. COc1ccc(C2=N/C(=C\c3ccco3)C(=O)N2c2ccc(S(=O)(=O)Nc3ncccn3)cc2)cc1

stdout:
[6.68, 7.05]

* * *

Field: melting point. Provide a value for each of the compounds that follow.

Please review the entries below; each comes with its answer.
COc1ccc(C2=N/C(=C\c3ccc(F)cc3)C(=O)N2c2ccc(S(=O)(=O)Nc3ncccn3)cc2)cc1; 257 to 259 °C
O=C1/C(=C/c2ccccc2O)N=C(c2ccccc2)N1c1ccc(S(=O)(=O)Nc2ncccn2)cc1; 188 to 190 °C
COc1ccc(C2=N/C(=C\c3ccccc3)C(=O)N2c2ccc(S(=O)(=O)Nc3ncccn3)cc2)cc1; 258 to 260 °C
O=C1/C(=C/c2ccc(Br)cc2)N=C(c2ccccc2)N1c1ccc(S(=O)(=O)Nc2ncccn2)cc1; 290 to 292 °C

Hi team, please reply with melting point for each item in this list.
1. COc1ccc(C2=N/C(=C\c3ccc(Br)cc3)C(=O)N2c2ccc(S(=O)(=O)Nc3ncccn3)cc2)cc1
2. COc1ccc(C2=N/C(=C\c3ccc(Cl)cc3)C(=O)N2c2ccc(S(=O)(=O)Nc3ncccn3)cc2)cc1
3. Cc1ccc(/C=C2\N=C(c3ccccc3)N(c3ccc(S(=O)(=O)Nc4ncccn4)cc3)C2=O)cc1

stdout:
284 to 286 °C
262 to 264 °C
277 to 279 °C
